- ASSAYED_SYSTEM: Phosphatidylinositol 4,5-bisphosphate 3-kinase catalytic subunit gamma isoform (Homo sapiens, UniProt P48736)
- Sequence (P48736 whole entry, canonical isoform): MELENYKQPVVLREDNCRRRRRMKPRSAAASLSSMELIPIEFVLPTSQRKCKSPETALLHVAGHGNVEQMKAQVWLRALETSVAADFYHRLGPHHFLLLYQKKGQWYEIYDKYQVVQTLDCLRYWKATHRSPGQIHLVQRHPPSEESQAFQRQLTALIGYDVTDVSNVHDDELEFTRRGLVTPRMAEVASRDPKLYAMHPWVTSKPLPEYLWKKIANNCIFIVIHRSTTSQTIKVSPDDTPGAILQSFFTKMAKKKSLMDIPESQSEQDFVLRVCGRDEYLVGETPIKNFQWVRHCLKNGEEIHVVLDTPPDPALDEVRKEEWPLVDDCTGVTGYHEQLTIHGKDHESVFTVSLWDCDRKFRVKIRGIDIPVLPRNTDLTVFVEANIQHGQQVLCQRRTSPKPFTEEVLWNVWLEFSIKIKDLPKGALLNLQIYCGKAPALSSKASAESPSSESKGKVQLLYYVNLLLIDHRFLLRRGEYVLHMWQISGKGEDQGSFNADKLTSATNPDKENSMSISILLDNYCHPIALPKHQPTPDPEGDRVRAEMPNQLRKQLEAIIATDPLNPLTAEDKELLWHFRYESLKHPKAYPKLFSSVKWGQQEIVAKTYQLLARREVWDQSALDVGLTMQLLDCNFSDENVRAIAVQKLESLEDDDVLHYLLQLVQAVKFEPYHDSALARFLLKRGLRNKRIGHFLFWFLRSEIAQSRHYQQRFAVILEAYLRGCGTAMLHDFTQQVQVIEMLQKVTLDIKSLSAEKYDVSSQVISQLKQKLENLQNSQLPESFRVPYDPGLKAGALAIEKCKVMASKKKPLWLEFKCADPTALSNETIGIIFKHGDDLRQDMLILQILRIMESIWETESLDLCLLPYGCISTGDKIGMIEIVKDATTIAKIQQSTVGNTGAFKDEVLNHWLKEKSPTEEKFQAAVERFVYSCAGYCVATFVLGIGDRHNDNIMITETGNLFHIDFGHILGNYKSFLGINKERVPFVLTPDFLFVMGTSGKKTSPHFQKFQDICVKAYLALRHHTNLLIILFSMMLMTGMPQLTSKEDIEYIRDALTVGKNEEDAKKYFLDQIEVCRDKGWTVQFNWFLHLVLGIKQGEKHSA
PROPERTY: IC50 (nM)
Only the number, expressed in nM, is required.

Problem: Entry N#Cc1c(N)nc(N)nc1N1CC2(CC2)C[C@H]1c1nc2cccc(Cl)c2c(=O)n1-c1ccccc1 : reported IC50 = ?
Result: 4.3

Problem: Entry O=c1c2c(Cl)cccc2nc([C@@H]2CC3(CC3)CN2c2ncnc3[nH]cnc23)n1-c1ccccc1 : reported IC50 = ?
Result: 113

* * *

- MEASUREMENT_NOTES: AUC (0 to t) in Sprague-Dawley rat at 5 mg/kg, po by UHPLC-LC/MS analysis
- Assay type: ADME, organism-based
- Set-up: dose 5 mg/kg
- MEASUREMENT_CONTEXT: in vivo
PROPERTY: AUC(0-t) (µg·h/mL)
Only the number, expressed in µg·h/mL, is required.

Problem: Entry N#Cc1c(N)nc(N)nc1N1CC2(CC2)C[C@H]1c1nc2cccc(Cl)c2c(=O)n1-c1ccccc1 : reported AUC(0-t) = ?
Result: 4.88

* * *

- MEASUREMENT_NOTES: Clearance in Sprague-Dawley rat at 5 mg/kg, […] by UHPLC-LC/MS analysis
- Format: ADME, organism-based
- MEASUREMENT_CONTEXT: in vivo
PROPERTY: CL/F (mL/min/kg)
Only the number, expressed in mL/min/kg, is required.

Problem: Entry N#Cc1c(N)nc(N)nc1N1CC2(CC2)C[C@H]1c1nc2cccc(Cl)c2c(=O)n1-c1ccccc1 : reported CL/F = ?
Result: 15

* * *

- MEASUREMENT_NOTES: Elimination half life in Sprague-Dawley rat at 5 mg/kg, iv by UHPLC-LC/MS analysis
- Assay type: ADME, organism-based
- MEASUREMENT_CONTEXT: in vivo, read-out: beta t1/2 (converted)
PROPERTY: half-life (min)
Only the number, expressed in min, is required.

Problem: Entry N#Cc1c(N)nc(N)nc1N1CC2(CC2)C[C@H]1c1nc2cccc(Cl)c2c(=O)n1-c1ccccc1 : reported half-life = ?
Result: 180

* * *

Kindly supply the reported IC50 values for the records listed here.
Only the number, expressed in µM, is required.

Problem: Short answer please: IC50, PI3-kinase p110-delta/p85-alpha (Homo sapiens, UniProt O00329), entry O=c1c2c(F)cccc2nc([C@@H]2CC3(CC3)CN2c2ncnc3[nH]cnc23)n1C1CCCCC1
Result: 0.444

Problem: Short answer please: IC50, PI3-kinase p110-delta/p85-alpha (Homo sapiens, UniProt O00329), entry O=c1c2c(Cl)cccc2nc([C@@H]2CC3(CC3)CN2c2nc(F)nc3[nH]cnc23)n1-c1ccccc1
Result: 0.038

Problem: Short answer please: IC50, PI3-kinase p110-delta/p85-alpha (Homo sapiens, UniProt O00329), entry Cc1nc(N)nc(N2CC3(CC3)C[C@H]2c2nc3cccc(Cl)c3c(=O)n2-c2ccccc2)c1C#N
Result: 0.0096

Problem: Short answer please: IC50, PI3-kinase p110-delta/p85-alpha (Homo sapiens, UniProt O00329), entry N#Cc1c(N)nc(N)nc1N1CC2(CC2)C[C@H]1c1nc2cccc(F)c2c(=O)n1-c1ccccc1
Result: 0.0054

Problem: Short answer please: IC50, PI3-kinase p110-delta/p85-alpha (Homo sapiens, UniProt O00329), entry O=c1c2c(F)cccc2nc([C@@H]2CC3(CC3)CN2c2ncnc3[nH]cnc23)n1Cc1ccccc1
Result: 0.813

Problem: Short answer please: IC50, PI3-kinase p110-delta/p85-alpha (Homo sapiens, UniProt O00329), entry N#Cc1c(N)ncnc1N1CC2(CC2)C[C@H]1c1nc2cccc(Cl)c2c(=O)n1-c1ccccc1
Result: 0.0037

Problem: Short answer please: IC50, PI3-kinase p110-delta/p85-alpha (Homo sapiens, UniProt O00329), entry O=c1c2cc(F)ccc2nc([C@@H]2CC3(CC3)CN2c2ncnc3[nH]cnc23)n1-c1ccccc1
Result: 0.048

Problem: Short answer please: IC50, PI3-kinase p110-delta/p85-alpha (Homo sapiens, UniProt O00329), entry N#Cc1c(N)ncnc1N1CC2(CC2)C[C@H]1c1nc2ccc(F)cc2c(=O)n1-c1ccccc1
Result: 0.0096

Reference source: ChEMBL document CHEMBL4680196
